# Experimental Target: HIV-1 92RW020 Env (pseudovirus) (HIV-1 isolate 92RW020)
# Experimental Protocol: cell-based or functional assay
Below, each entry is listed alongside its reported IC50 (µg/mL), pseudovirus neutralization.
Assay Metric: IC50 (µg/mL), pseudovirus neutralization

{"Binder": "1456_P20 (PG20) (antibody, human IgG1, kappa, V domains shown) VH: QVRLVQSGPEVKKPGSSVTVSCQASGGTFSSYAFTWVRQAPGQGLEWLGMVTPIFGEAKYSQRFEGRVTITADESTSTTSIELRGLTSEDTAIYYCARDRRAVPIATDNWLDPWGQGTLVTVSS VL: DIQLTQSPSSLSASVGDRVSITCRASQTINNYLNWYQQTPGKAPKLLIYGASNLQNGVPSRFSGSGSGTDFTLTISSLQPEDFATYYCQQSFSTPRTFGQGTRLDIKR", "Unit Label": "µg/mL", "Value Modifier": "=", "Reported": 50}
{"Binder": "1495_C14 (PGC14) (antibody, human IgG1, lambda, V domains shown) VH: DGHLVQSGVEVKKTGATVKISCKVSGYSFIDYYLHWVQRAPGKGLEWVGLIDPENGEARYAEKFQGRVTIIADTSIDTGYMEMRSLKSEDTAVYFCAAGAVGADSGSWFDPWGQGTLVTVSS VL: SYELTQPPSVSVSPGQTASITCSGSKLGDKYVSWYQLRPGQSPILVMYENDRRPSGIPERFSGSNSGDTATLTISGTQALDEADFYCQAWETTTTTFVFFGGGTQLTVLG", "Unit Label": "µg/mL", "Value Modifier": "=", "Reported": 28.6}
{"Binder": "1496_C09 (PG9) (TCN-109) (antibody, V domains shown) VH: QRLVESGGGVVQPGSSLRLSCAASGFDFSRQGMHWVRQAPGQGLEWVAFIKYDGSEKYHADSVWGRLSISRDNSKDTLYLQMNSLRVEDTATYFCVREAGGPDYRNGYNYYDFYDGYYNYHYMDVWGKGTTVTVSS VL: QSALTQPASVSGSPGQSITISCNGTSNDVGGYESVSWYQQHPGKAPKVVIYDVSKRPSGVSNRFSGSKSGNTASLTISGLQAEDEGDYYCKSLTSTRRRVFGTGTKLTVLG", "Unit Label": "µg/mL", "Value Modifier": "=", "Reported": 0.06}
{"Binder": "1460_G14 (PGG14) (antibody, human IgG1, kappa, V domains shown) VH: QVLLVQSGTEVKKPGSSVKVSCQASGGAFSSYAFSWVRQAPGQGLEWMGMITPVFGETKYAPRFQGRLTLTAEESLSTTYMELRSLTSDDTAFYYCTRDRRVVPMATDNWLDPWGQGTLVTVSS VL: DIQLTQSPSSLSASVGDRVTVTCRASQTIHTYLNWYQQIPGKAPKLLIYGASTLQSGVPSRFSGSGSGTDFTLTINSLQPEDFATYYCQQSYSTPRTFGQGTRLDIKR", "Unit Label": "µg/mL", "Value Modifier": ">", "Reported": 50}

This collection of values is drawn from patent US20250320281A1.
